As shown below, each of these molecules has a reported pest or weed control at 250 µg/mL value.
- Test system: Phytophthora infestans
- protocol.summary: whole plant or invertebrate
- Type: in vivo
- recorded.conditions: in Solanum lycopersicum, 168 h, read-out: % Control
Please report the result as a number followed by the unit.

CC1(c2ccccc2)OC(=O)C(Cl)(Cl)C(C(Cl)(Cl)Cl)N1OC(=O)Nc1ccc(Cl)c(Cl)c1 (stereo not shown) [Compound 9]: 89%

Query: Which pest or weed control at 250 µg/mL is listed for CC1(c2ccccc2)OC(=O)C(Cl)(Cl)C(C(Cl)(Cl)Cl)N1OC(=O)Nc1cccc(Cl)c1 (stereo not shown) [Compound 13] ?
Result: 89%

Query: Consider next the molecule CC(C)C1(C)OC(=O)CC(C(Cl)(Cl)Cl)N1OC(=O)Nc1ccc(Cl)cc1 (stereo not shown) [Compound 32] in the same way.
Result: 56%

Query: Try this molecule too: CC(C)C1(C)OC(=O)CC(C(Cl)(Cl)Cl)N1OC(=O)Nc1ccc(Cl)c(Cl)c1 (stereo not shown) [Compound 28]
Result: 23%

----------
- Tested on: Phytophthora infestans
- protocol.summary: whole plant or invertebrate
- Type: in vivo
- recorded.conditions: in Solanum lycopersicum, 168 h, read-out: % Control
Quick list: pest or weed control at 250 µg/mL per entry.

Known pest or weed control at 250 µg/mL results, listed for orientation:
CC1(C)OC(=O)C(Cl)(Cl)C(C(Cl)(Cl)Cl)N1OC(=O)Nc1ccc(Cl)c(Cl)c1 (stereo not shown): 21%
Cc1ccc(NC(=O)ON2C(C(Cl)(Cl)Cl)CC(=O)OC2(C)C)cc1 (stereo not shown): 21%
CC1(C)OC(=O)CC(C(Cl)(Cl)Cl)N1OC(=O)Nc1ccc(Cl)c(Cl)c1 (stereo not shown): 96%

Now for a further compound.
Query: I'd like to know its pest or weed control at 250 µg/mL. The compound in question is O=C(Nc1cccc(Cl)c1)ON1C(C(Cl)(Cl)Cl)C(Cl)(Cl)C(=O)OC12CCCC2 (stereo not shown)
Result: 68%

----------
- System: Ersiphe polygoni
- protocol.summary: Powdery Mildew control (sprayed bean seedlings)
- Format: in vivo
- recorded.conditions: 250-ppm solution; bean seedlings (cultivar Bountiful); inoculated one day after spray; about 10 days; relative to untreated check plants
recorded.endpoint: % Control (%)
State the answer as a number, implicitly in %.

Below, 5 molecules whose answers are already recorded.
CC1(C)OC(=O)CC(C(Cl)(Cl)Cl)N1OC(=O)Nc1ccc(Cl)cc1 (stereo not drawn): 75
CC(C)C1(C)OC(=O)CC(C(Cl)(Cl)Cl)N1OC(=O)Nc1ccc(Cl)cc1 (stereo not drawn): 100
Cc1ccc(NC(=O)ON2C(C(Cl)(Cl)Cl)CC(=O)OC2(C)C)cc1 (stereo not drawn): 96
CC1(C)OC(=O)CC(C(Cl)(Cl)Cl)N1OC(=O)Nc1ccccc1 (stereo not drawn): 91
CC1(C)OC(=O)CC(C(Cl)(Cl)Cl)N1OC(=O)Nc1ccccc1F (stereo not drawn): 75

Query: Entry O=C(Nc1cccc(Cl)c1)ON1C(C(Cl)(Cl)Cl)C(Cl)(Cl)C(=O)OC1(c1ccccc1)c1ccccc1 (stereo not drawn) : reported % Control = ?
Result: 11

----------
- Tested on: Phytophthora infestans
- protocol.summary: whole plant or invertebrate
- Assay type: in vivo
- recorded.conditions: in Solanum lycopersicum, 168 h, read-out: % Control
Outcome: Met for pest or weed control at 250 µg/mL of at least 90%; Not met for anything lower.

Solved entries (count: 5):
CC1(C)OC(=O)C(Cl)(Cl)C(C(Cl)(Cl)Cl)N1OC(=O)Nc1cccc(Cl)c1 (centres unmarked): Not met
O=C(Nc1ccc(Cl)cc1)ON1C(C(Cl)(Cl)Cl)C(Cl)(Cl)C(=O)OC12CCCC2 (centres unmarked): Met
O=C1CC(C(Cl)(Cl)Cl)N(OC(=O)Nc2ccc(Cl)c(Cl)c2)C2(CCCCC2)O1 (centres unmarked): Not met
COc1ccc(NC(=O)ON2C(C(Cl)(Cl)Cl)C(Cl)(Cl)C(=O)OC2(C)C)cc1 (centres unmarked): Met
CCC1(C)OC(=O)CC(C(Cl)(Cl)Cl)N1OC(=O)Nc1ccc(Cl)cc1 (centres unmarked): Not met

Query: Exam item: decide whether the reported pest or weed control at 250 µg/mL for CC1(c2ccccc2)OC(=O)C(Cl)(Cl)C(C(Cl)(Cl)Cl)N1OC(=O)Nc1ccccc1 (centres unmarked) is at least 90%.
Result: Met
